# Tested on: CCRF-CEM leukemia
# assay.overview: NCI tumour cell line growth inhibition, 48 h; in the data active means GI50 below about 0.43 µM; inactive means the rest
// classify into active, inactive

Problem: Check the results log: what was the call for `N#[N+]c1ccc(Nc2ccccc2)cc1` ?
Result: inactive

Problem: Check the results log: what was the call for `COc1ccc(C2=Nn3c(nnc3-n3nc(C)cc3C)SC2)cc1` ?
Result: active

Problem: Check the results log: what was the call for `CC(C)OP(=O)(O)c1ncc(-c2ccc(C(F)(F)F)cc2)c(NC2CCCCCC2)n1` ?
Result: inactive

Problem: Check the results log: what was the call for CSC1=Nc2c(c(C)c(-c3ccccc3)n2COC(CO)CO)C2=NC(=O)CC(C)N12 (configuration not stated) ?
Result: inactive

Problem: Check the results log: what was the call for `CCOC(=O)[C@@H]1CSC(CC)=C(C(=O)O)N1` ?
Result: inactive

Problem: Check the results log: what was the call for COc1ccc(C(O)c2cc3c(N)c(C(=O)Nc4cccc(Br)c4C)sc3nc2C)cc1 (configuration not stated) ?
Result: active

Problem: Check the results log: what was the call for `COc1cc(-c2nn(-c3cccc(NC(=O)CCN4CCN(c5ccccc5)CC4)c3)cc2-c2ccncc2)ccc1Cl` ?
Result: inactive

Problem: Check the results log: what was the call for `NC(=O)/C(=C/n1cnc(-c2cc(C(F)(F)F)cc(C(F)(F)F)c2)n1)c1cncnc1` ?
Result: active

Problem: Check the results log: what was the call for `O=[N+]([O-])/C=C/c1ccc(Cl)cc1[N+](=O)[O-]` ?
Result: inactive

Problem: Check the results log: what was the call for `O=C1Nc2ccc3c(c2/C1=C\c1cc2c(cc1Br)OCO2)OCO3` ?
Result: active

Problem: Check the results log: what was the call for `CCOc1ccc2cc(-c3nn(CC4CCNCC4)c4ncnc(N)c34)ccc2c1` ?
Result: inactive

Problem: Check the results log: what was the call for COc1cc(NC2CCCCC2O)c2nc(-c3ccc(Cl)cc3)ccc2c1 (configuration not stated) ?
Result: inactive

Problem: Check the results log: what was the call for `COc1ccc(-c2cc(/C=C/C(=O)c3ccc(N)cc3)[nH]n2)cc1` ?
Result: inactive

Problem: Check the results log: what was the call for CC(O)[C@H](NC(=O)N[C@@H](CC(N)=O)c1nc(N2CCNCC2)no1)C(=O)O (some centres not stated) ?
Result: inactive

Problem: Check the results log: what was the call for Cc1ccc(C2CC(c3ccc(Nc4ccnc5cc(Cl)ccc45)cc3)=NN2C=O)cc1 (configuration not stated) ?
Result: inactive

Problem: Check the results log: what was the call for `CCCCCCCCCCCCCCCC[n+]1ccccc1` ?
Result: active

Problem: Check the results log: what was the call for `CS(=O)(=O)Nc1cc(-c2ccc3ncnc(Nc4cccc(Cl)c4)c3c2)cnc1Cl` ?
Result: inactive

* * *

# Test system: SN12C renal
# assay.overview: NCI tumour cell line growth inhibition, 48 h
quantity: TGI

Problem: Quick one: TGI for `COc1ccccc1NC(=O)C1=C(C)NC(C)=C(C(=O)Nc2ccccc2OC)C1c1ccco1` ?
Result: 89.9 µM

Problem: Quick one: TGI for COc1cc(NC2CCCCC2O)c2nc(-c3ccc(Cl)cc3)ccc2c1 (stereo not given) ?
Result: 53.1 µM

Problem: Quick one: TGI for CC(=O)N1C(Nc2nccs2)CCN1c1ccccc1 (stereo not given) ?
Result: > 10 µM

Problem: Quick one: TGI for `COc1ccc2nc3ccc(OC)cc3c(SCCCl)c2c1` ?
Result: > 100 µM

Problem: Quick one: TGI for C=CCN1CCC(c2cc(C(=O)OCC)[nH]c2-c2cc(C)no2)C1=O (stereo not given) ?
Result: > 100 µM

Problem: Quick one: TGI for COC(=O)/C=C/[C@@H]1[C@H](C)N1S(=O)(=O)c1ccc(C)cc1 (stereo not given in full) ?
Result: > 100 µM

Problem: Quick one: TGI for `O=C1NC(N/N=C\c2ccccc2)=N/C1=C/c1ccccc1` ?
Result: > 100 µM

Problem: Quick one: TGI for `COc1ccc2c(c1OC)O/C(=C\c1ncc([N+](=O)[O-])n1C)C2=O` ?
Result: 8.83 µM

Problem: Quick one: TGI for O=CN1N=C(c2cccc(Nc3ccnc4cc(Cl)ccc34)c2)CC1c1ccc(Cl)cc1 (stereo not given) ?
Result: > 100 µM

Problem: Quick one: TGI for CC(Oc1ccc(Cl)cc1Cl)C(=O)NN1C(=O)CC(=O)N(c2ccccc2)C1=S (stereo not given) ?
Result: > 100 µM
